Target: human Hv1 E119H-H140A-H193A (Homo sapiens, UniProt Q96D96, E119H/H140A/H193A)
Sequence (Q96D96 whole entry E119H/H140A/H193A): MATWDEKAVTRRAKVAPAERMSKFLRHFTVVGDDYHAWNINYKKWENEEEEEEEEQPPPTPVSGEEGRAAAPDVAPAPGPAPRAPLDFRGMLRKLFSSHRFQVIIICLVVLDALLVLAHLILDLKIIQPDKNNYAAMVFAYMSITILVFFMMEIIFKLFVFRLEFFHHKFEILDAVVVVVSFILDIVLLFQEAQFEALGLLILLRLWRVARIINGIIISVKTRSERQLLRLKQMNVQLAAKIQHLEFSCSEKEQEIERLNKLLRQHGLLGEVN
Test: Whole-cell voltage clamp, Zn^2+ modulation of GAQ gating
Assay type: cell-based
Conditions: read-out: Mean IC50 @ VSTEP; VSTEP 60 mV; pH 6.5; mean of fits in separate cells
pIC50: −log10 of the molar value.

>  <Structure Notation>
[Cl-].[Cl-].[Zn+2]

>  <pIC50>
5.14

$$$$

* * *

Target: human Hv1 E119H-H193A (Homo sapiens, UniProt Q96D96, E119H/H193A)
Sequence (Q96D96 whole entry E119H/H193A): as the sequence (Q96D96 whole entry E119H/H140A/H193A) above, with A140H counted along it
Assay: Whole-cell voltage clamp, Zn^2+ modulation of GAQ gating
Format: cell-based
Conditions: read-out: IC50, fit of the mean data to a Hill function; Fig. 4A
pIC50: −log10 of the molar value.
Property Label: pIC50

>  <Structure Notation>
[Cl-].[Cl-].[Zn+2]

>  <Tested On>
human Hv1 E119H-H193A (Homo sapiens, UniProt Q96D96, E119H/H193A)

>  <Property Label>
pIC50

>  <Numeric Readout>
5.38

$$$$
